Origin of the recorded values: paper PMC11954145

tested on: Mycobacterium kansasii DSM 44162; assay: Antimycobacterial screening, broth dilution MIC; type: cell-based; conditions: DSM44162, 336 h, read-out: MIC M. kansasii
parameter: MIC (µM)
# unit: µM | format: bare number

Lab note: COc1ccc(C)c(NC(=O)c2c(O)ccc3ccccc23)c1 gave MIC of 833

Lab note: COc1ccc(C)cc1NC(=O)c1c(O)ccc2ccccc12 gave MIC of 833

Lab note: COc1ccc(Cl)c(NC(=O)c2c(O)ccc3ccccc23)c1 gave MIC of 391

Lab note: Cc1ccc(C(F)(F)F)cc1NC(=O)c1c(O)ccc2ccccc12 gave MIC of 46.3

Lab note: COc1cccc(C)c1NC(=O)c1c(O)ccc2ccccc12 gave MIC of 833

Lab note: O=C(Nc1cccc([N+](=O)[O-])c1)c1c(O)ccc2ccccc12 gave MIC of 104

---

assay: Lipophilicity determination by RP-HPLC (log k, log D); format: physicochemical; settings: RP-HPLC C18, MeOH 72 % / acetate-buffered saline pH 6.5
parameter: log D6.5
In your answer, state the number alone without any accompanying words.

Lab note: COc1ccc(Br)cc1NC(=O)c1c(O)ccc2ccccc12 gave log D6.5 of 0.5836

Lab note: Cc1ccc(C)c(NC(=O)c2c(O)ccc3ccccc23)c1 gave log D6.5 of 0.2455

Lab note: O=C(Nc1ccc([N+](=O)[O-])cc1)c1c(O)ccc2ccccc12 gave log D6.5 of 0.0862

Lab note: COc1cc(NC(=O)c2c(O)ccc3ccccc23)cc(OC)c1 gave log D6.5 of 0.0411

Lab note: O=C(Nc1cccc([N+](=O)[O-])c1)c1c(O)ccc2ccccc12 gave log D6.5 of 0.3462

Lab note: COc1cc(NC(=O)c2c(O)ccc3ccccc23)cc(OC)c1OC gave log D6.5 of -0.1053

---

test system: Mycobacterium tuberculosis ATCC 25177/H37Ra; assay: Antimycobacterial screening, broth dilution MIC (Alamar blue); format: cell-based; settings: 336 h, H37Ra, 14 days at 37 °C, Alamar blue, read-out: MIC M. tuberculosis
Kindly supply the reported MIC values for the records listed here.
# unit: µM | format: bare number

Lab note: COc1ccc(Cl)c(NC(=O)c2c(O)ccc3ccccc23)c1 gave MIC of 391

Lab note: COc1cccc(NC(=O)c2c(O)ccc3ccccc23)c1 gave MIC of 218

Lab note: O=C(Nc1ccc([N+](=O)[O-])c(C(F)(F)F)c1)c1c(O)ccc2ccccc12 gave MIC of 85

Lab note: Cc1ccccc1NC(=O)c1c(O)ccc2ccccc12 gave MIC of 231

Lab note: COc1ccc(Br)cc1NC(=O)c1c(O)ccc2ccccc12 gave MIC of 344

Lab note: COc1cccc(C)c1NC(=O)c1c(O)ccc2ccccc12 gave MIC of 416

Lab note: NNC(=O)c1ccncc1 [INH, isoniazid, reference compound] gave MIC of 36.5

Lab note: Cc1cc(C)c(NC(=O)c2c(O)ccc3ccccc23)c(C)c1 gave MIC of 210

Lab note: Cc1cccc(C)c1NC(=O)c1c(O)ccc2ccccc12 gave MIC of 439

Lab note: O=C(Nc1ccccc1[N+](=O)[O-])c1c(O)ccc2ccccc12 gave MIC of 104

Lab note: Cc1cccc(NC(=O)c2c(O)ccc3ccccc23)c1 gave MIC of 231

Lab note: O=C(Nc1ccc([N+](=O)[O-])cc1)c1c(O)ccc2ccccc12 gave MIC of 104

Lab note: COc1ccc(NC(=O)c2c(O)ccc3ccccc23)cc1 gave MIC of 109

Lab note: COc1ccc(C)c(NC(=O)c2c(O)ccc3ccccc23)c1 gave MIC of 416

Lab note: Cc1ccc(C(F)(F)F)cc1NC(=O)c1c(O)ccc2ccccc12 gave MIC of 46.3

Lab note: CO[C@H]1/C=C/O[C@@]2(C)Oc3c(C)c(O)c4c(O)c(c(/C=N/N5CCN(C)CC5)c(O)c4c3C2=O)NC(=O)/C(C)=C\C=C\[C@H](C)[C@H](O)[C@@H](C)[C@@H](O)[C@@H](C)[C@H](OC(C)=O)[C@@H]1C [RIF, rifampicin, reference compound] gave MIC of 9.71

Lab note: COc1ccc(OC)c(NC(=O)c2c(O)ccc3ccccc23)c1 gave MIC of 396

---

tested on: VRE 342B; experiment: Antibacterial screening, broth microdilution MIC; assay type: cell-based, vancomycin-resistant E. faecalis; settings: Enterococcus, vanA isolate, 24 h at 37 °C, read-out: MIC VRE 342B
parameter: log10 MIC (log10 of the value in µM)
# values: log10(MIC), units µM

Lab note: COc1ccc(NC(=O)c2c(O)ccc3ccccc23)cc1C(F)(F)F gave log10 MIC of 2.25

Lab note: O=C(Nc1ccc([N+](=O)[O-])cc1)c1c(O)ccc2ccccc12 gave log10 MIC of 2.92

Lab note: Cc1cccc(NC(=O)c2c(O)ccc3ccccc23)c1 gave log10 MIC of 2.66

Lab note: Cc1ccc(NC(=O)c2c(O)ccc3ccccc23)cc1 gave log10 MIC of 2.66

Lab note: COc1ccc(OC)c(NC(=O)c2c(O)ccc3ccccc23)c1 gave log10 MIC of 2.90

Lab note: COc1ccc(C)c(NC(=O)c2c(O)ccc3ccccc23)c1 gave log10 MIC of 2.92

Lab note: COc1ccc(Br)cc1NC(=O)c1c(O)ccc2ccccc12 gave log10 MIC of 2.84

Lab note: O=C(Nc1ccc([N+](=O)[O-])c(C(F)(F)F)c1)c1c(O)ccc2ccccc12 gave log10 MIC of 1.63

Lab note: Cc1cccc(C)c1NC(=O)c1c(O)ccc2ccccc12 gave log10 MIC of 2.94

---

test system: VRE 342B; experiment: Antibacterial screening, broth microdilution MIC; type: cell-based, vancomycin-resistant E. faecalis; conditions: Enterococcus, vanA isolate, 24 h at 37 °C, read-out: MIC VRE 342B
Kindly supply the reported MIC values for the records listed here.

Lab note: Cc1cc(C)cc(NC(=O)c2c(O)ccc3ccccc23)c1 gave MIC of 879 µM

Lab note: O=C(Nc1ccccc1[N+](=O)[O-])c1c(O)ccc2ccccc12 gave MIC of 830 µM

Lab note: COc1ccc(C(F)(F)F)cc1NC(=O)c1c(O)ccc2ccccc12 gave MIC of 709 µM

Lab note: Cc1ccc(C)c(NC(=O)c2c(O)ccc3ccccc23)c1 gave MIC of 879 µM

Lab note: Cc1ccc(NC(=O)c2c(O)ccc3ccccc23)cc1C(F)(F)F gave MIC of 741 µM

Lab note: COc1cc(NC(=O)c2c(O)ccc3ccccc23)cc(OC)c1OC gave MIC of 724 µM

Lab note: Cc1ccc(C(F)(F)F)cc1NC(=O)c1c(O)ccc2ccccc12 gave MIC of 92.6 µM

Lab note: O=C(Nc1cccc([N+](=O)[O-])c1)c1c(O)ccc2ccccc12 gave MIC of 830 µM

Lab note: Cc1ccccc1NC(=O)c1c(O)ccc2ccccc12 gave MIC of 462 µM

---

test system: Mycobacterium kansasii DSM 44162; assay: Antimycobacterial screening, broth dilution MIC; assay type: cell-based; conditions: DSM44162, 336 h, DSM 44162, 14 days at 37 °C, read-out: MIC M. kansasii
parameter: MIC

Mycobacterium kansasii DSM 44162 data for Cc1cccc(NC(=O)c2c(O)ccc3ccccc23)c1 [Compound 9] ; its MIC: 115 µM

Mycobacterium kansasii DSM 44162 data for Cc1ccc(NC(=O)c2c(O)ccc3ccccc23)cc1 [Compound 10] ; its MIC: 115 µM

Mycobacterium kansasii DSM 44162 data for COc1ccc(NC(=O)c2c(O)ccc3ccccc23)cc1 [Compound 4] ; its MIC: 218 µM

Mycobacterium kansasii DSM 44162 data for CO[C@H]1/C=C/O[C@@]2(C)Oc3c(C)c(O)c4c(O)c(c(/C=N/N5CCN(C)CC5)c(O)c4c3C2=O)NC(=O)/C(C)=C\C=C\[C@H](C)[C@H](O)[C@@H](C)[C@@H](O)[C@@H](C)[C@H](OC(C)=O)[C@@H]1C [RIF, rifampicin, reference compound] ; its MIC: 0.15 µM

Mycobacterium kansasii DSM 44162 data for COc1ccc(Br)cc1NC(=O)c1c(O)ccc2ccccc12 [Compound 19] ; its MIC: 688 µM

Mycobacterium kansasii DSM 44162 data for NNC(=O)c1ccncc1 [INH, isoniazid, reference compound] ; its MIC: 233 µM

Mycobacterium kansasii DSM 44162 data for COc1cccc(NC(=O)c2c(O)ccc3ccccc23)c1 [Compound 3] ; its MIC: 109 µM

Mycobacterium kansasii DSM 44162 data for COc1ccc(NC(=O)c2c(O)ccc3ccccc23)cc1C(F)(F)F [Compound 21] ; its MIC: 709 µM

---

system: Enterococcus faecalis ATCC 29212; assay: Antibacterial screening, broth microdilution MIC; format: cell-based; conditions: ATCC29212, ATCC 29212, 24 h at 37 °C, read-out: MIC E. faecalis
parameter: MIC (µM)
# unit: µM | format: bare number

Lab note: Cc1ccc(NC(=O)c2c(O)ccc3ccccc23)cc1 gave MIC of 462

Lab note: COc1ccc(NC(=O)c2c(O)ccc3ccccc23)cc1C(F)(F)F gave MIC of 88.6

Lab note: O=C(Nc1cccc([N+](=O)[O-])c1)c1c(O)ccc2ccccc12 gave MIC of 830
